Test system: SKOV3
Assay method text: Primary qHTS to identify gynecologic anti-cancer compounds using libraries of approved drugs and bioactive compounds (AID 1345084); note: nearly all actives have a fitted effect of over 55% in size
Experimental conditions: Gynecologic cancer cell panel viability, ATPlite luminescence, 48 h; series mostly up to 57.5 µM
Inconclusive results are not listed. Active and inactive are the calls of the source. Calls come from the whole dose curve; as a rule, active = well fitted cell-killing curve with a large enough effect; inconclusive = small, poorly fitted or top-dose-only effect, or effect the other way; inactive = flat fitted curve, though single readings scatter.
Parameter call: string, one of T (active), F (inactive)

For orientation, consider the following solved cases.
| Compound | Assigned label |
| --- | --- |
| Cc1nnc(C(=O)NC(C)(C)c2nc(C(=O)NCc3ccc(F)cc3)c(O)c(=O)n2C)o1 | F |
| CC[C@H](NC(C)C)[C@H](O)c1ccc(O)c2[nH]c(=O)ccc12 | F |
| CC1=NN(c2ccccc2)C(=O)C1 | F |
| CN1CCN(c2c(F)cc3c(=O)c(C(=O)O)cn(CCF)c3c2F)CC1 | F |
| COc1nc(N)nc2c1ncn2[C@@H]1O[C@H](CO)[C@@H](O)[C@@H]1O | F |

query: Identify the outcome logged in this assay for the compound shown: C1CCC(C(CC2CCCCN2)C2CCCCC2)CC1 (stereo unspecified)
result: T

query: Also need O=C(NCC1CN(c2ccc(N3CCOCC3=O)cc2)C(=O)O1)c1ccc(Cl)s1 (stereo unspecified) , thanks.
result: F

query: Also need CC(C)(C#N)c1cc(Cn2cncn2)cc(C(C)(C)C#N)c1 , thanks.
result: F

query: Also need COc1ccc(C(=O)CC(=O)c2ccc(C(C)(C)C)cc2)cc1 , thanks.
result: F

query: Also need CC(C)Cn1cnc2c(N)nc3ccccc3c21 , thanks.
result: F

query: Also need CCOC(=O)c1ccc(C#Cc2ccc3c(c2)C(C)(C)CCS3)nc1 , thanks.
result: F

###

Assay method text: qHTS for identification of novel therapeutic agents for treatment of microphthalmiaassociated transcription factor (MiT) renal cell carcinoma (RCC) (AID 1963991);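 note: curves scaled with 100% = DMSO viability and 0% = empty wells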
Experimental conditions: TFE3-RCC viability, CellTiter-Glo, 48 h; measured here: UOK124 Z-AUC; stronger effect = lower value
Records with an inconclusive call do not appear.
z-score listing for selected compounds.
Respond with the number and no other words.

query: Quick one: z-score for NC(=O)N1c2ccccc2CC(=O)c2ccccc21 ?
result: 0.361

query: Also need CCCCS(=N)(=O)CCC(N)C(=O)O (stereo unspecified) , thanks.
result: 0.527

query: Also need CCN(CC)CCn1c(=O)c(Cc2ccc(OC)cc2)nc2ccccc21 , thanks.
result: 0.577

query: Also need N[C@@H](C(=O)N[C@@H]1C(=O)N2C(C(=O)O)=C(Cl)CS[C@H]12)c1ccccc1 , thanks.
result: 0.137

query: Also need Cc1nnc(C(=O)NC(C)(C)c2nc(C(=O)NCc3ccc(F)cc3)c(O)c(=O)n2C)o1 , thanks.
result: 0.249

query: Also need CCN[C@H]1C[C@H](C)S(=O)(=O)c2sc(S(N)(=O)=O)cc21 , thanks.
result: 0.48

query: Also need COC(c1ccccc1)(c1ccccc1)[C@H](Oc1nc(C)cc(C)n1)C(=O)O , thanks.
result: 0.918

query: Also need O=C(O)c1cc(=O)[nH]c(=O)[nH]1 , thanks.
result: 0.79

query: Also need COc1ccc2c(c1)c(CC(=O)OCC(=O)O)c(C)n2C(=O)c1ccc(Cl)cc1 , thanks.
result: 1.19

query: Also need O=P(O)(O)C(O)(Cc1cccnc1)P(=O)(O)O , thanks.
result: 0.644

query: Also need CC(=O)[C@H]1CC[C@H]2[C@@H]3CC=C4C[C@@H](O)CC[C@]4(C)[C@H]3CC[C@]12C , thanks.
result: 0.52
